These measurements were taken from patent US11661409B1.

assay: Pharmacokinetics of aqueous suspensions in mice; conditions: mouse, plasma, oral, 10 mg/kg, Mean plasma concentration at 4.0 hr, mice, aqueous suspension, 10 mg/kg of free base, 4.0 hr
quantity.kind: concentration at 4 h (ng/mL)
Field format: number, assumed ng/mL, no unit text.

Prompt: For the compound CN1CCN(Cc2ccc(-c3cnc4[nH]cc(-c5ccc6[nH]ccc6c5)c4c3)cc2)CC1 , give its measured concentration at 4 h value.
Completion: 46.9

###

test: Pharmacokinetics of aqueous suspensions in mice; conditions: mouse, plasma, po, 10 mg/kg, AUClast, mice, aqueous suspension, 10 mg/kg of free base, 6-hour study
quantity.kind: AUC(0-t) (ng·h/mL)
Field format: number, assumed ng·h/mL, no unit text.

Prompt: For the compound CN1CCN(Cc2ccc(-c3cnc4[nH]cc(-c5ccc6[nH]ccc6c5)c4c3)cc2)CC1 , give its measured AUC(0-t) value.
Completion: 181

###

assay: Pharmacokinetics of aqueous suspensions in mice; conditions: mouse, plasma, po, 10 mg/kg, Cmax, mice, aqueous suspension, equimolar dose 10 mg/kg of free base, plasma Compound 1
quantity.kind: Cmax (ng/mL)
Field format: number, assumed ng/mL, no unit text.

Prompt: For the compound CN1CCN(Cc2ccc(-c3cnc4[nH]cc(-c5ccc6[nH]ccc6c5)c4c3)cc2)CC1 , give its measured Cmax value.
Completion: 56.3

###

assay: Pharmacokinetics of aqueous suspensions in mice; conditions: mouse, plasma, po, 10 mg/kg
quantity.kind: Tmax (h)
Field format: number, assumed h, no unit text.

Prompt: For the compound CN1CCN(Cc2ccc(-c3cnc4[nH]cc(-c5ccc6[nH]ccc6c5)c4c3)cc2)CC1 , give its measured Tmax value.
Completion: 6

###

test: Pharmacokinetics of aqueous suspensions in mice; settings: mouse, plasma, oral, 10 mg/kg, Mean plasma concentration at 0.67 hr, mice, aqueous suspension, 10 mg/kg of free base, 0.67 hr
quantity.kind: concentration at 0.67 h (ng/mL)
Field format: number, assumed ng/mL, no unit text.

Prompt: For the molecule CN1CCN(Cc2ccc(-c3cnc4[nH]cc(-c5ccc6[nH]ccc6c5)c4c3)cc2)CC1 , give its measured concentration at 0.67 h value.
Completion: 1.46

###

experiment: Pharmacokinetics of aqueous suspensions in mice; settings: mouse, plasma, oral, 10 mg/kg, Mean plasma concentration at 0.33 hr, mice, aqueous suspension, 10 mg/kg of free base, 0.33 hr
quantity.kind: concentration at 0.33 h (ng/mL)
Field format: number, assumed ng/mL, no unit text.

Prompt: For the compound CN1CCN(Cc2ccc(-c3cnc4[nH]cc(-c5ccc6[nH]ccc6c5)c4c3)cc2)CC1 [Phosphate] , give its measured concentration at 0.33 h value.
Completion: 0.679
